# Tested on: Setaria faberi (SETFA)
# protocol_details: Example B pre-emergence herbicidal greenhouse test
# Assay type: in vivo
# condition_description: 480 h, evaluated after 20 days, 100=total damage to plant, 0=no damage
The reader will find reported pest or weed control at 250 g/ha values listed item by item below.
parameter: pest or weed control at 250 g/ha (%)

| compound | readout_unit | result_value |
| --- | --- | --- |
| CCc1ccc(-c2ccc(Cl)cc2OC)cc1C1=C(O)[C@H]2CC[C@H](C2)C1=O (single isomer, unassigned) | % | 20 |
| Cc1ccc(-c2ccc(Cl)cc2F)cc1C1=C(O)[C@H]2CC[C@H](C2)C1=O (single isomer, unassigned) | % | 100 |
| Cc1ccc(-c2ccc(Cl)cc2Cl)cc1C1=C(O)[C@H]2CC[C@H](C2)C1=O (single isomer, unassigned) | % | 60 |
| CCc1ccc(-c2ccc(Cl)cc2C)cc1C1=C(O)[C@H]2CC[C@H](C2)C1=O (single isomer, unassigned) | % | 70 |

* * *

The reader will find reported pest or weed control at 250 g/ha values listed item by item below.
# Tested on: Alopecurus myosuroides (ALOMY)
# protocol_details: Example A post-emergence herbicidal glasshouse test
# Type: in vivo
# condition_description: 312 h, evaluated after 13 days, 100=total damage to plant, 0=no damage
parameter: pest or weed control at 250 g/ha (%)

| molecule | subject_of_test | parameter | result_value |
| --- | --- | --- | --- |
| CCc1ccc(-c2ccc(Cl)cc2Cl)cc1C1=C(OC(=O)OC)[C@H]2CC[C@H](C2)C1=O (single isomer, unassigned) [Compound P4] | Alopecurus myosuroides (ALOMY) | pest or weed control at 250 g/ha | 100 |
| Cc1ccc(-c2ccc(C(F)(F)F)cc2)cc1C1=C(O)[C@H]2CC[C@H](C2)C1=O (single isomer, unassigned) [Compound T23] | Alopecurus myosuroides (ALOMY) | pest or weed control at 250 g/ha | 60 |
| CCc1cc(-c2ccc(C)cc2)ccc1C1=C(O)[C@H]2CC[C@H](C2)C1=O (single isomer, unassigned) [Compound T60] | Alopecurus myosuroides (ALOMY) | pest or weed control at 250 g/ha | 90 |
| CCc1ccc(-c2ccc(Cl)nc2C)cc1C1=C(O)[C@H]2CC[C@H](C2)C1=O (single isomer, unassigned) [Compound T79] | Alopecurus myosuroides (ALOMY) | pest or weed control at 250 g/ha | 40 |
| Cc1ccc(-c2ccc(Cl)cc2C(F)(F)F)cc1C1=C(O)[C@H]2CC[C@H](C2)C1=O (single isomer, unassigned) [Compound T42] | Alopecurus myosuroides (ALOMY) | pest or weed control at 250 g/ha | 0 |
| Cc1ccc(-c2cc(Cl)ccc2Cl)cc1C1=C(O)[C@H]2CC[C@H](C2)C1=O (single isomer, unassigned) [Compound T51] | Alopecurus myosuroides (ALOMY) | pest or weed control at 250 g/ha | 0 |
| Cc1ccc(-c2cccc(F)c2)cc1C1=C(O)[C@H]2CC[C@H](C2)C1=O (single isomer, unassigned) [Compound T13] | Alopecurus myosuroides (ALOMY) | pest or weed control at 250 g/ha | 0 |
| Cc1cc(-c2ccccc2)ccc1C1=C(O)[C@H]2CC[C@H](C2)C1=O (single isomer, unassigned) [Compound T58] | Alopecurus myosuroides (ALOMY) | pest or weed control at 250 g/ha | 60 |
| CCc1ccc(-c2ccc(Cl)cc2F)cc1C1=C(O)[C@H]2C=C[C@H](CC2)C1=O [Compound T57] | Alopecurus myosuroides (ALOMY) | pest or weed control at 250 g/ha | 30 |
| Cc1ccc(-c2cc(Cl)ccc2C)cc1C1=C(O)[C@H]2CC[C@H](C2)C1=O (single isomer, unassigned) [Compound T50] | Alopecurus myosuroides (ALOMY) | pest or weed control at 250 g/ha | 0 |

* * *

# System: Digitaria sanguinalis (DIGSA)
# protocol_details: Example B pre-emergence herbicidal greenhouse test
# Format: in vivo
# condition_description: 480 h, evaluated after 20 days, 100=total damage to plant, 0=no damage
# Description: Seeds of a variety of test species were sown in standard soil in pots. […] The test plants were then grown in a greenhouse under optimum conditions until, 15 days later for post-emergence and 20 days for pre-emergence, the test was evaluated (100=total damage to plant; 0=no damage to plant). […]
The reader will find reported pest or weed control at 250 g/ha values listed item by item below.

| molecule | subject_of_test | pest or weed control at 250 g/ha |
| --- | --- | --- |
| CCc1ccc(-c2ccc(Cl)c(C(F)(F)F)c2)cc1C1=C(O)[C@H]2CC[C@H](C2)C1=O (single isomer, unassigned) | Digitaria sanguinalis (DIGSA) | 90% |
| CCc1ccc(-c2ccc(Cl)c(C#N)c2)cc1C1=C(O)[C@H]2CC[C@H](C2)C1=O (single isomer, unassigned) | Digitaria sanguinalis (DIGSA) | 90% |
| CCc1cc(-c2ccc(Cl)cc2)ccc1C1=C(O)[C@H]2CC[C@H](C2)C1=O | Digitaria sanguinalis (DIGSA) | 90% |

* * *

# Tested on: Echinochloa crus-galli (ECHCG)
# protocol_details: Example A pre-emergence herbicidal glasshouse test
# Type: in vivo
# condition_description: 312 h, Rate 250 g/ha, evaluated after 13 days, 100=total damage to plant, 0=no damage to plant
# Procedure: Seeds of a variety of test species were sown in standard soil in pots. […] After 13 days for pre and post-emergence, the test was evaluated (100=total damage to plant; 0=no damage to plant). […]
The reader will find reported pest or weed control at 250 g/ha values listed item by item below.

| molecule | pest or weed control at 250 g/ha |
| --- | --- |
| Cc1ccc(-c2cccc(Cl)c2C)cc1C1=C(O)[C@H]2CC[C@H](C2)C1=O (single isomer, unassigned) [Compound T48] | 0% |
| Cc1ccc(-c2ccc(C)c(C3=C(O)[C@H]4CC[C@H](C4)C3=O)c2)cc1 (single isomer, unassigned) [Compound T20] | 40% |
| Cc1ccc(-c2ccc(C(F)(F)F)cc2)cc1C1=C(O)[C@H]2CC[C@H](C2)C1=O (single isomer, unassigned) [Compound T23] | 90% |
| CCc1ccc(-c2ccc(Cl)cc2Cl)cc1C1=C(OC(=O)OC)[C@H]2CC[C@H](C2)C1=O (single isomer, unassigned) [Compound P4] | 90% |
| CCc1ccc(-c2ccc(Cl)cc2)cc1C1=C(O)[C@H]2CC[C@H](CC2)C1=O [Compound T54] | 100% |
| CCc1cc(-c2ccc(Cl)cc2)ccc1C1=C(OC(C)=O)[C@@H]2CC[C@@H](C2)C1=O [Compound P3] | 70% |
| CCc1ccc(-c2ccc(Cl)cc2OC)cc1C1=C(O)[C@H]2CC[C@H](C2)C1=O (single isomer, unassigned) [Compound T43] | 90% |
| CCc1ccc(-c2ccc(Cl)nc2C)cc1C1=C(O)[C@H]2CC[C@H](C2)C1=O (single isomer, unassigned) [Compound T79] | 0% |
| Cc1ccc(-c2ccccc2C(F)(F)F)cc1C1=C(O)[C@H]2CC[C@H](C2)C1=O (single isomer, unassigned) [Compound T21] | 0% |
| CCc1cc(-c2ccc(C)cc2)ccc1C1=C(O)[C@H]2CC[C@H](C2)C1=O (single isomer, unassigned) [Compound T60] | 100% |
| Cc1cc(-c2ccccc2)ccc1C1=C(O)[C@H]2CC[C@H](C2)C1=O (single isomer, unassigned) [Compound T58] | 40% |
| CCc1ccc(-c2ccc(Cl)cc2)cc1C1=C(O)C2CC(C1=O)C2(C)C (centres unmarked) [Compound T69] | 100% |
| Cc1ccc(-c2ccc(Cl)cc2C(F)(F)F)cc1C1=C(O)[C@H]2CC[C@H](C2)C1=O (single isomer, unassigned) [Compound T42] | 0% |
| Cc1ccc(-c2cccc(Cl)c2F)cc1C1=C(O)[C@H]2CC[C@H](C2)C1=O (single isomer, unassigned) [Compound T46] | 0% |
| CCc1ccc(-c2ccc(Cl)nc2Cl)cc1C1=C(O)[C@H]2CC[C@H](C2)C1=O (single isomer, unassigned) [Compound T80] | 90% |
| CCc1ccc(-c2ccc(Cl)cc2C)cc1C1=C(O)[C@H]2CC[C@H](C2)C1=O (single isomer, unassigned) [Compound T33] | 90% |
| Cc1ccc(-c2cc(F)cc(Cl)c2)cc1C1=C(O)[C@H]2CC[C@H](C2)C1=O (single isomer, unassigned) [Compound T47] | 0% |

* * *

# Tested on: Setaria faberi (SETFA)
# protocol_details: Example B post-emergence herbicidal greenhouse test
# Format: in vivo
# condition_description: 360 h, evaluated after 15 days, 100=total damage to plant, 0=no damage
Lab note: class by pest or weed control at 125 g/ha, see low (below 30%), intermediate (30% to below 80%), high (80% or more)

| molecule | subject_of_test | label_value |
| --- | --- | --- |
| CCc1ccc(-c2ccc(Cl)cc2F)cc1C1=C(O)[C@H]2CC[C@H](C2)C1=O (single isomer, unassigned) [Compound T41] | Setaria faberi (SETFA) | high |
| Cc1ccc(-c2ccc(Cl)cc2F)cc1C1=C(O)[C@H]2CC[C@H](C2)C1=O (single isomer, unassigned) [Compound T27] | Setaria faberi (SETFA) | high |
| CCc1ccc(-c2ccc(Cl)cc2OC)cc1C1=C(O)[C@H]2CC[C@H](C2)C1=O (single isomer, unassigned) [Compound T43] | Setaria faberi (SETFA) | intermediate |
| Cc1cc(-c2ccc(C)c(C3=C(O)[C@H]4CC[C@H](C4)C3=O)c2)ccc1Cl (single isomer, unassigned) [Compound T24] | Setaria faberi (SETFA) | low |
| CCc1ccc(-c2ccc(Cl)cc2)cc1C1=C(O)[C@H]2CC[C@H](C2)C1=O [Compound T4] | Setaria faberi (SETFA) | high |
| CCc1cc(-c2ccc(Cl)cc2)ccc1C1=C(O)[C@H]2CC[C@H](C2)C1=O [Compound T59] | Setaria faberi (SETFA) | high |
| CCc1ccc(-c2ccc(Cl)cc2C)cc1C1=C(O)[C@H]2CC[C@H](C2)C1=O (single isomer, unassigned) [Compound T33] | Setaria faberi (SETFA) | high |
| Cc1ccc(-c2cc(Cl)cc(Cl)c2)cc1C1=C(O)[C@H]2CC[C@H](C2)C1=O (single isomer, unassigned) [Compound T28] | Setaria faberi (SETFA) | low |
| Cc1ccc(-c2ccc(F)c(Cl)c2)cc1C1=C(O)[C@H]2CC[C@H](C2)C1=O (single isomer, unassigned) [Compound T29] | Setaria faberi (SETFA) | intermediate |
| CCc1cc(-c2ccc(C)cc2)cc(CC)c1C1=C(O)[C@H]2CC[C@H](C2)C1=O [Compound T63] | Setaria faberi (SETFA) | intermediate |
| Cc1cc(-c2ccccc2)cc(C)c1C1=C(OC(=O)C(C)(C)C)C2CCC(C2)C1=O (stereo not shown) [Compound P2] | Setaria faberi (SETFA) | intermediate |
| COc1ccc(Cl)cc1-c1ccc(C)c(C2=C(O)[C@H]3CC[C@H](C3)C2=O)c1 (single isomer, unassigned) [Compound T30] | Setaria faberi (SETFA) | low |
